Data origin, for the record: paper PMC7870773

- Tested on: MCF-7 breast cancer cells
- Assay Info: MTT cell viability under nutrient-deprived conditions, MCF-7
- Assay type: cell-based
- Experimental Context: Homo sapiens, MCF7, up to 48 h, average ± SD
Measure Name: pIC50
One number for each entry, as −log10 of the molar value.

Previously resolved entries follow.
INSERT INTO assay_data (compound, numeric_value) VALUES
  ('CC(C)=CCCC(C)=CCCC(C)=CCOc1ccc2c(C)cc(=O)oc2c1 [4c, 7-Farnesyloxy-4-methyl-2H-chromen-2-one]', 4.72),
  ('CCCCCCCCOc1ccc2c(C)cc(=O)oc2c1 [4d, 4-Methyl-7-octyloxy-2H-chromen-2-one]', 4.54),
  ('CC(C)=CCOc1cc(OCC=C(C)C)c2c(C)cc(=O)oc2c1 [4g]', 4.46),
  ('CC(C)=CCCC(C)=CCCC(C)=CCOc1ccc2ccc(=O)oc2c1 [4l, 7-Farnesyloxy-coumarin]', 5.05);

Form entry - test system: MCF-7 breast cancer cells; read-out: pIC50; compound: CC(C)=CCC/C(C)=C/COc1ccc2ccc(=O)oc2c1 [4k, 7-Geranyloxy-2H-chromen-2-one]
4.85
